- procedure_details: PK of compound of Formula (Ia) after single subcutaneous dose of solution formulations in beagle dogs
- Type: in vivo
- reported_conditions: male, beagle, dog, plasma, sc, 12 mg/kg, mean ± SD, n = 3 dogs; SC 12 mg/kg; solution W, 400 mg/mL; read-out: AUC0-672 h
quantity_measured: AUC(0-t) (µM·h)
Reply with just the number (in µM·h).

Ask | Quick check: AUC(0-t) of CC(C)(C#Cc1ccc(-c2ccc(Cl)c3c(NS(C)(=O)=O)nn(CC(F)(F)F)c23)c([C@H](Cc2cc(F)cc(F)c2)NC(=O)Cn2nc(C(F)(F)F)c3c2C(F)(F)[C@@H]2C[C@H]32)n1)S(C)(=O)=O ?
Reply | 65.1

###

- procedure_details: PK of compound of Formula (Ia) after single subcutaneous dose of solution formulations in Wistar Han rats
- Assay type: in vivo
- reported_conditions: male, Wistar Han, rat, plasma, sc, 50 mg/kg, mean ± SD, n = 5 rats; SC 50 mg/kg; solution U, 500 mg/mL; read-out: AUC0-672 h
quantity_measured: AUC(0-t) (µM·h)
Reply with just the number (in µM·h).

Ask | Quick check: AUC(0-t) of CC(C)(C#Cc1ccc(-c2ccc(Cl)c3c(NS(C)(=O)=O)nn(CC(F)(F)F)c23)c([C@H](Cc2cc(F)cc(F)c2)NC(=O)Cn2nc(C(F)(F)F)c3c2C(F)(F)[C@@H]2C[C@H]32)n1)S(C)(=O)=O [compound of Formula (Ia)] ?
Reply | 159

###

- procedure_details: PK of compound of Formula (Ia) after single subcutaneous dose of solution formulations in Wistar Han rats
- Type: in vivo
- reported_conditions: male, Wistar Han, rat, plasma, sc, 50 mg/kg, Wistar Han rats, SC 50 mg/kg, 400 mg/mL solution AA (6.25% poloxamer 188), 2352 h, Mean n = 4
quantity_measured: concentration at 2352 h (nM)
Reply with just the number (in nM).

Ask | Quick check: concentration at 2352 h of CC(C)(C#Cc1ccc(-c2ccc(Cl)c3c(NS(C)(=O)=O)nn(CC(F)(F)F)c23)c([C@H](Cc2cc(F)cc(F)c2)NC(=O)Cn2nc(C(F)(F)F)c3c2C(F)(F)[C@@H]2C[C@H]32)n1)S(C)(=O)=O ?
Reply | 75.4

###

- procedure_details: PK of compound of Formula (Ia) after single subcutaneous dose of solution formulations in Wistar Han rats
- Assay type: in vivo
- reported_conditions: male, Wistar Han, rat, plasma, sc, 50 mg/kg, 8.00 h; individual rats; SC 50 mg/kg; solution V, 300 mg/mL
quantity_measured: concentration at 8 h
Be sure to follow the number with its unit.

Ask | Quick check: concentration at 8 h of CC(C)(C#Cc1ccc(-c2ccc(Cl)c3c(NS(C)(=O)=O)nn(CC(F)(F)F)c23)c([C@H](Cc2cc(F)cc(F)c2)NC(=O)Cn2nc(C(F)(F)F)c3c2C(F)(F)[C@@H]2C[C@H]32)n1)S(C)(=O)=O [compound of Formula (Ia)] ?
Reply | 170 nM

###

- procedure_details: PK of compound of Formula (Ia) after single subcutaneous dose of solution formulations in Wistar Han rats
- Assay type: in vivo
- reported_conditions: male, Wistar Han, rat, plasma, sc, 50 mg/kg, Wistar Han rats, SC 50 mg/kg, 500 mg/mL solution X (5.00% ethanol, 1.91% poloxamer 188), 1344 h, Mean n = 3
quantity_measured: concentration at 1344 h (nM)
Reply with just the number (in nM).

Ask | Quick check: concentration at 1344 h of CC(C)(C#Cc1ccc(-c2ccc(Cl)c3c(NS(C)(=O)=O)nn(CC(F)(F)F)c23)c([C@H](Cc2cc(F)cc(F)c2)NC(=O)Cn2nc(C(F)(F)F)c3c2C(F)(F)[C@@H]2C[C@H]32)n1)S(C)(=O)=O [compound of Formula (Ia)] ?
Reply | 272

###

- procedure_details: PK of compound of Formula (Ia) after single subcutaneous dose of solution formulations in Wistar Han rats
- Type: in vivo
- reported_conditions: male, Wistar Han, rat, plasma, sc, 50 mg/kg, Wistar Han rats, SC 50 mg/kg, 400 mg/mL solution W (5.00% ethanol, 1.57% poloxamer 188), 1344 h, animals #1-#3
quantity_measured: concentration at 1344 h (µM)
Reply with just the number (in µM).

Ask | Quick check: concentration at 1344 h of CC(C)(C#Cc1ccc(-c2ccc(Cl)c3c(NS(C)(=O)=O)nn(CC(F)(F)F)c23)c([C@H](Cc2cc(F)cc(F)c2)NC(=O)Cn2nc(C(F)(F)F)c3c2C(F)(F)[C@@H]2C[C@H]32)n1)S(C)(=O)=O ?
Reply | 0.26

###

- procedure_details: PK of compound of Formula (Ia) after single subcutaneous dose of solution formulations in Wistar Han rats
- Format: in vivo
- reported_conditions: male, Wistar Han, rat, plasma, sc, 50 mg/kg, 72.0 h; individual rats; SC 50 mg/kg; solution S, 500 mg/mL
quantity_measured: concentration at 72 h (nM)
Reply with just the number (in nM).

Ask | Quick check: concentration at 72 h of CC(C)(C#Cc1ccc(-c2ccc(Cl)c3c(NS(C)(=O)=O)nn(CC(F)(F)F)c23)c([C@H](Cc2cc(F)cc(F)c2)NC(=O)Cn2nc(C(F)(F)F)c3c2C(F)(F)[C@@H]2C[C@H]32)n1)S(C)(=O)=O ?
Reply | 95.8

###

- procedure_details: PK of compound of Formula (Ia) after single intramuscular dose of solution formulations in Wistar Han rats
- Type: in vivo
- reported_conditions: male, Wistar Han, rat, plasma, intramuscular, 100 mg/kg, Solution J (~400 mg/mL, poloxamer 188); IM 100 mg/kg; Wistar Han rats; mean, n = 4; 8.00 h; read-out: Plasma concentration, Mean
quantity_measured: concentration at 8 h (nM)
Reply with just the number (in nM).

Ask | Quick check: concentration at 8 h of CC(C)(C#Cc1ccc(-c2ccc(Cl)c3c(NS(C)(=O)=O)nn(CC(F)(F)F)c23)c([C@H](Cc2cc(F)cc(F)c2)NC(=O)Cn2nc(C(F)(F)F)c3c2C(F)(F)[C@@H]2C[C@H]32)n1)S(C)(=O)=O [compound of Formula (Ia)] ?
Reply | 507

###

- procedure_details: PK of compound of Formula (Ia) after single subcutaneous dose of solution formulations in Wistar Han rats
- Format: in vivo
- reported_conditions: male, Wistar Han, rat, plasma, sc, 50 mg/kg, Wistar Han rats, SC 50 mg/kg, 500 mg/mL solution X (5.00% ethanol, 1.91% poloxamer 188), 168 h, animals #1-#3
quantity_measured: concentration at 168 h (nM)
Reply with just the number (in nM).

Ask | Quick check: concentration at 168 h of CC(C)(C#Cc1ccc(-c2ccc(Cl)c3c(NS(C)(=O)=O)nn(CC(F)(F)F)c23)c([C@H](Cc2cc(F)cc(F)c2)NC(=O)Cn2nc(C(F)(F)F)c3c2C(F)(F)[C@@H]2C[C@H]32)n1)S(C)(=O)=O ?
Reply | 204

###

- procedure_details: PK of compound of Formula (Ia) after single subcutaneous dose of solution formulations in Wistar Han rats
- Type: in vivo
- reported_conditions: male, Wistar Han, rat, plasma, sc, 50 mg/kg, 1008 h; mean, n = 3 rats; SC 50 mg/kg; solution S, 500 mg/mL
quantity_measured: concentration at 1008 h (nM)
Reply with just the number (in nM).

Ask | Quick check: concentration at 1008 h of CC(C)(C#Cc1ccc(-c2ccc(Cl)c3c(NS(C)(=O)=O)nn(CC(F)(F)F)c23)c([C@H](Cc2cc(F)cc(F)c2)NC(=O)Cn2nc(C(F)(F)F)c3c2C(F)(F)[C@@H]2C[C@H]32)n1)S(C)(=O)=O ?
Reply | 300

###

- procedure_details: PK of compound of Formula (Ia) after single subcutaneous dose of solution formulations in beagle dogs
- Assay type: in vivo
- reported_conditions: male, beagle, dog, plasma, sc, 12 mg/kg, male beagle dogs, single SC 12 mg/kg, 400 mg/mL solution AA (6.25% poloxamer 188), mean ± SD, n = 3; read-out: AUC0-1008 h
quantity_measured: AUC(0-t) (µM·h)
Reply with just the number (in µM·h).

Ask | Quick check: AUC(0-t) of CC(C)(C#Cc1ccc(-c2ccc(Cl)c3c(NS(C)(=O)=O)nn(CC(F)(F)F)c23)c([C@H](Cc2cc(F)cc(F)c2)NC(=O)Cn2nc(C(F)(F)F)c3c2C(F)(F)[C@@H]2C[C@H]32)n1)S(C)(=O)=O [compound of Formula (Ia)] ?
Reply | 149

###

- procedure_details: PK of compound of Formula (Ia) after single subcutaneous dose of solution formulations in Wistar Han rats
- Type: in vivo
- reported_conditions: male, Wistar Han, rat, plasma, sc, 50 mg/kg, 4704 h; individual rats; SC 50 mg/kg; solution S, 500 mg/mL
quantity_measured: concentration at 4704 h (nM)
Reply with just the number (in nM).

Ask | Quick check: concentration at 4704 h of CC(C)(C#Cc1ccc(-c2ccc(Cl)c3c(NS(C)(=O)=O)nn(CC(F)(F)F)c23)c([C@H](Cc2cc(F)cc(F)c2)NC(=O)Cn2nc(C(F)(F)F)c3c2C(F)(F)[C@@H]2C[C@H]32)n1)S(C)(=O)=O ?
Reply | 62.9
